Origin of measurements: the supplement of paper PMC11208160

- Test Protocol: recombinant UMI read abundance after kanamycin selection (control-corrected) (log10(CPM+1)); higher = more efficient recombination; extreme values may be limits of the assay; sequences stand for … in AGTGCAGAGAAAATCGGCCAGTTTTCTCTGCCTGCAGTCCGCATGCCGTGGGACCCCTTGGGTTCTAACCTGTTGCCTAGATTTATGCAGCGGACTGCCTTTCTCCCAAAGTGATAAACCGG…AGGTTGGTTTCACT; site = the 11-nt donor;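 further: IS621 bridge recombinase in Escherichia coli cells against a fixed T5 target plasmid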
Endpoint Label: recombinant UMI read abundance (log10)

Residue Sequence: GTTCGATCATGGACCGGTTTTCCCGGTAATCCGTATTTGCA (site GTTCGAGCTTG)
Endpoint Label: recombinant UMI read abundance (log10)
Recorded Measurement: 0.00436

Residue Sequence: GAGTGGCCATGGACCGGTTTTCCCGGTAATCCGTATTTGCA (site GAGTGGCCTTG)
Endpoint Label: recombinant UMI read abundance (log10)
Recorded Measurement: 0

Residue Sequence: TACCGTTCATGGACCGGTTTTCCCGGTAATCCGTATTTGTT (site TACCGTTCTAA)
Endpoint Label: recombinant UMI read abundance (log10)
Recorded Measurement: 0.218

Residue Sequence: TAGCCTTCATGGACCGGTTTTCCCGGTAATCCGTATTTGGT (site GAGCCTTCTAC)
Endpoint Label: recombinant UMI read abundance (log10)
Recorded Measurement: 0.0148

Residue Sequence: AGTAACGCATGGACCGGTTTTCCCGGTAATCCGTATTTGGT (site AGTAACGCTAC)
Endpoint Label: recombinant UMI read abundance (log10)
Recorded Measurement: 1.7

Residue Sequence: CTAATATCATGGACCGGTTTTCCCGGTAATCCGTATTTGAG (site CTAATATCTCT)
Endpoint Label: recombinant UMI read abundance (log10)
Recorded Measurement: 3.07

Residue Sequence: CCCTAGCCATGGACCGGTTTTCCCGGTAATCCGTATTTGCT (site CCCTAGCCTTG)
Endpoint Label: recombinant UMI read abundance (log10)
Recorded Measurement: 0

Residue Sequence: ATAATGCCATGGACCGGTTTTCCCGGTAATCCGTATTTGAC (site ATAAAGCCTGT)
Endpoint Label: recombinant UMI read abundance (log10)
Recorded Measurement: 0.589

Residue Sequence: TTCCAAGCATGGACCGGTTTTCCCGGTAATCCGTATTTGAG (site ATCCAAGCTCT)
Endpoint Label: recombinant UMI read abundance (log10)
Recorded Measurement: 0

Residue Sequence: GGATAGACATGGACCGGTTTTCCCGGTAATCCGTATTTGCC (site GGATTGACTGG)
Endpoint Label: recombinant UMI read abundance (log10)
Recorded Measurement: 0

Residue Sequence: GACCGTCCATGGACCGGTTTTCCCGGTAATCCGTATTTGAG (site GACCGTCCTCT)
Endpoint Label: recombinant UMI read abundance (log10)
Recorded Measurement: 0.281

Residue Sequence: CTAGTTTCATGGACCGGTTTTCCCGGTAATCCGTATTTGAC (site CTAGTATCTGT)
Endpoint Label: recombinant UMI read abundance (log10)
Recorded Measurement: 2.19

Residue Sequence: CTTCGAGCATGGACCGGTTTTCCCGGTAATCCGTATTTGCA (site GTTCGAGCTTG)
Endpoint Label: recombinant UMI read abundance (log10)
Recorded Measurement: 0

Residue Sequence: AGCAAGACATGGACCGGTTTTCCCGGTAATCCGTATTTGGA (site AGGAAGACTTG)
Endpoint Label: recombinant UMI read abundance (log10)
Recorded Measurement: 0

Residue Sequence: AAAGATTCATGGACCGGTTTTCCCGGTAATCCGTATTTGTT (site GAAGATTCTAA)
Endpoint Label: recombinant UMI read abundance (log10)
Recorded Measurement: 0.233

Residue Sequence: TGTCCAACATGGACCGGTTTTCCCGGTAATCCGTATTTGTA (site CGTCCAACTTA)
Endpoint Label: recombinant UMI read abundance (log10)
Recorded Measurement: 0.338

* * *

- Test Protocol: recombinant UMI read abundance after kanamycin selection (control-corrected) (log10(CPM+1)); higher = more efficient recombination; extreme values may be limits of the assay; sequences stand for … in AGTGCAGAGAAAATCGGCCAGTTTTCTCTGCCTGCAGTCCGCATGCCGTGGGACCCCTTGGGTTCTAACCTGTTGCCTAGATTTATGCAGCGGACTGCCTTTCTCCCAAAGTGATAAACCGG…AGGTTGGTTTCACT; site = the 11-nt donor
Endpoint Label: recombinant UMI read abundance (log10)

Residue Sequence: TAGCCTTCATGGACCGGTTTTCCCGGTAATCCGTATTTGCT (site TAGCCTTCTAT)
Endpoint Label: recombinant UMI read abundance (log10)
Recorded Measurement: 0
//
Residue Sequence: CGCGAACCATGGACCGGTTTTCCCGGTAATCCGTATTTGAT (site CGAGAACCTAT)
Endpoint Label: recombinant UMI read abundance (log10)
Recorded Measurement: 0
//
Residue Sequence: GTTATCCCATGGACCGGTTTTCCCGGTAATCCGTATTTGGC (site GTTATCCCTGC)
Endpoint Label: recombinant UMI read abundance (log10)
Recorded Measurement: 0
//
Residue Sequence: TACTTTCCATGGACCGGTTTTCCCGGTAATCCGTATTTGCT (site TACTTTCCTAG)
Endpoint Label: recombinant UMI read abundance (log10)
Recorded Measurement: 0.537
//
Residue Sequence: CCTGGAACATGGACCGGTTTTCCCGGTAATCCGTATTTGTT (site CCTGGAACTAA)
Endpoint Label: recombinant UMI read abundance (log10)
Recorded Measurement: 0.00583
//
Residue Sequence: ATCCAAACATGGACCGGTTTTCCCGGTAATCCGTATTTGAG (site ATCCAAGCTCT)
Endpoint Label: recombinant UMI read abundance (log10)
Recorded Measurement: 0.432
//
Residue Sequence: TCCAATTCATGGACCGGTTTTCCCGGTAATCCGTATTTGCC (site GCCAATTCTGG)
Endpoint Label: recombinant UMI read abundance (log10)
Recorded Measurement: 0
//
Residue Sequence: GCTACTACATGGACCGGTTTTCCCGGTAATCCGTATTTGCC (site GCTACTGCTGG)
Endpoint Label: recombinant UMI read abundance (log10)
Recorded Measurement: 0
//
Residue Sequence: AGCTAGGCATGGACCGGTTTTCCCGGTAATCCGTATTTGGT (site TGCTAGGCTAC)
Endpoint Label: recombinant UMI read abundance (log10)
Recorded Measurement: 0.0219
//
Residue Sequence: GATTATCCATGGACCGGTTTTCCCGGTAATCCGTATTTGCG (site GATTATCCTAG)
Endpoint Label: recombinant UMI read abundance (log10)
Recorded Measurement: 0
//
Residue Sequence: ACTCGAACATGGACCGGTTTTCCCGGTAATCCGTATTTGTC (site ACTCGAACTGA)
Endpoint Label: recombinant UMI read abundance (log10)
Recorded Measurement: 2
//
Residue Sequence: ATCTATACATGGACCGGTTTTCCCGGTAATCCGTATTTGCC (site ATCTATACTGC)
Endpoint Label: recombinant UMI read abundance (log10)
Recorded Measurement: 0
//
Residue Sequence: GGCAAACCATGGACCGGTTTTCCCGGTAATCCGTATTTGGT (site GACAAACCTAC)
Endpoint Label: recombinant UMI read abundance (log10)
Recorded Measurement: 0
//
Residue Sequence: TTAGCTCCATGGACCGGTTTTCCCGGTAATCCGTATTTGTG (site TTAGCTCCTCA)
Endpoint Label: recombinant UMI read abundance (log10)
Recorded Measurement: 0.0123
//
Residue Sequence: CCACGAACATGGACCGGTTTTCCCGGTAATCCGTATTTGCA (site CCACGAACTTG)
Endpoint Label: recombinant UMI read abundance (log10)
Recorded Measurement: 0
//
Residue Sequence: GAAGTCACATGGACCGGTTTTCCCGGTAATCCGTATTTGGG (site GAAGTCACTCC)
Endpoint Label: recombinant UMI read abundance (log10)
Recorded Measurement: 0.412
//
Residue Sequence: TGCTCGGCATGGACCGGTTTTCCCGGTAATCCGTATTTGGT (site TGCTCGGCTAC)
Endpoint Label: recombinant UMI read abundance (log10)
Recorded Measurement: 0.0236
//
Residue Sequence: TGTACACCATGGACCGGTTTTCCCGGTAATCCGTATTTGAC (site TGTACACCTGC)
Endpoint Label: recombinant UMI read abundance (log10)
Recorded Measurement: 0
//
Residue Sequence: ATGTATACATGGACCGGTTTTCCCGGTAATCCGTATTTGCA (site ATGTATACTTG)
Endpoint Label: recombinant UMI read abundance (log10)
Recorded Measurement: 2.39
//
Residue Sequence: GCTTCTGCATGGACCGGTTTTCCCGGTAATCCGTATTTGCC (site GCTGCTGCTGG)
Endpoint Label: recombinant UMI read abundance (log10)
Recorded Measurement: 0
//
Residue Sequence: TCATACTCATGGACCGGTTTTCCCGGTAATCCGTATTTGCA (site TCACACTCTTG)
Endpoint Label: recombinant UMI read abundance (log10)
Recorded Measurement: 1.3
//
Residue Sequence: ACAGTAACATGGACCGGTTTTCCCGGTAATCCGTATTTGCT (site ACAGTAACTAG)
Endpoint Label: recombinant UMI read abundance (log10)
Recorded Measurement: 2.7
